Biological target: T1, CCL8_HUMAN (human, UniProt P80075 24-99)
T1 chain: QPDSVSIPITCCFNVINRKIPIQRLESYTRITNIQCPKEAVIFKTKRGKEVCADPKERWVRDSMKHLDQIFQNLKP
Assay: BLI
# note: exactly 4 nM is not below, so it is not fulfilled; use fulfilled for Kd strictly under it

[
  {
    "BINDER": "P1181_AMBMA (other) EEREDDNDYGGGCPFVVLGNGTHAKPAGCSHLCNGAPETLDNIECYNVTEEVAKRMTPDIPYTCWLGWCSKGECKRDNRTEVCYRGSERE",
    "CAT": "not fulfilled"
  },
  {
    "BINDER": "P546_AMBCA (other) ENTQQEEEDYDYGTDTCPFPVLANKTNKAKFVGCHQKCNGGDQKLTDGTACYVVERKVWDRMTPMLWYSCPLGECKNGVCEDLRKKEECRKGNGEEK",
    "CAT": "fulfilled"
  },
  {
    "BINDER": "P672_RHIPU (other) VCEVSEQEGVGEDNATEDEDYEDFFKPVTCYFANSTVGPLRPPNCTVVCTNNTAWWNDTKSDGGHCYSEYRPEKRTHSREIYNCTIGVCGNGTCIANHTYADCW",
    "CAT": "fulfilled"
  },
  {
    "BINDER": "P1182_AMBMA (other) EPKDDNDYGGGCPFVVLGNGTHAKPAGCSHLCNGAPETLDNIECYNVTEEVAKRMTPGIPYACWLGWCNKGECKRGNRTEVCYRGSEEE",
    "CAT": "not fulfilled"
  },
  {
    "BINDER": "P467_RHIPU (other) AEKSLDSDSSGEDYELWTQGCPFLVAENRTGFGTTVSCQHNCNGAIEKVPEGEPCYTIGEDGLGRMKLNLPYNCSLGECSGGVCVPNGRSDVCFKRTWEENNKAMA",
    "CAT": "fulfilled"
  },
  {
    "BINDER": "P1183_AMBTR (other) EAPKDDFEYDGGCPFVVLDNGTHVKPAGCSHLCNGAPETLDNIECYNVTEEVAKRMTPGIPYACWLGWCSKGECKRDNRTEVCYRGSEEE",
    "CAT": "not fulfilled"
  },
  {
    "BINDER": "P991_AMBCA (other) ENGEGTTQPDYDNSTDYYNYEDFKCTCPAPHLNNTNGTVMKPIGCYYTCNVTRCTAPDTYPCYNLTEHQAKNLTTSPTTLCAVGNCDHGICVPNGTKELCFKAPNLEE",
    "CAT": "not fulfilled"
  },
  {
    "BINDER": "P974_AMBCA (other) ENTQQEEQDYDYGTDTCPFPVLANKTNKAKFVGCHQKCNGGDQKLTDGTACYVVERKVWDRMTPMLWYECPLGECKNGVCEDLRKKEDCRKGNGEEK",
    "CAT": "fulfilled"
  }
]

Source of measurements: patent US20220175942A1
